System: collagen 1 (COL1)
Test: WI-38 collagen 1 inhibition assay
Format: cell-based, human
Details: Cellular EC50, WI-38 cells; values are classes of LogEC50
Test Readout: COL1 Efficacy (LogEC50)

Query Smiles	Experimental Target	Test Readout	Result
COCCC(=O)N1CCN(c2ccc(C(=O)Nc3nc(-c4ccccc4Cl)cs3)cc2)CC1	collagen 1 (COL1)	COL1 Efficacy (LogEC50)	+++ (+++: <−6)
O=C(Nc1nc(-c2ccccc2)cs1)c1ccc(N2CCOCC2)cc1	collagen 1 (COL1)	COL1 Efficacy (LogEC50)	+ (+: >−5)
Cc1ccc(C(=O)Nc2nc(-c3cnn(C)c3)cs2)cn1	collagen 1 (COL1)	COL1 Efficacy (LogEC50)	+ (+: >−5)
O=C(Nc1nc(-c2ccccc2Cl)cs1)c1ccc(N2CCOCC2)cn1	collagen 1 (COL1)	COL1 Efficacy (LogEC50)	+++ (+++: <−6)
CN1CCC[C@H](C(=O)N2CCN(c3ccc(C(=O)Nc4nc(-c5ccccc5Cl)cs4)nc3)CC2)C1	collagen 1 (COL1)	COL1 Efficacy (LogEC50)	+++ (+++: <−6)
Cc1ncccc1-c1csc(NC(=O)c2ccc(N3CCOCC3)cn2)n1	collagen 1 (COL1)	COL1 Efficacy (LogEC50)	++ (++: −5 to −6)

Recorded COL1 Efficacy (LogEC50) of O=C(Nc1nc(-c2ccccc2Cl)cs1)c1ccc(C2CCS(=O)(=O)CC2)cn1 , please. +++ (+++: <−6)

Record request: COL1 Efficacy (LogEC50) value, item Cc1ccc(C(=O)Nc2nc(-c3cncnc3C)cs2)cn1 ++ (++: −5 to −6)

// returns reported COL1 Efficacy (LogEC50) for input CN1CCC[C@@H](C(=O)N2CCN(c3ccc(C(=O)Nc4nc(-c5ccccc5Cl)cs4)nc3)CC2)C1 +++ (+++: <−6)

* * *

Tested on: collagen 1 (COL1)
Test: WI-38 collagen 1 inhibition assay
Format: cell-based, human
Conditions: Cellular EC50, WI-38 cells; values are classes of LogEC50
Test Readout: COL1 Efficacy (LogEC50)

Example results:
Query Smiles	Experimental Target	Result
Cc1ncc(C(=O)Nc2nc(-c3ccccc3Cl)cs2)cn1	collagen 1 (COL1)	++ (++: −5 to −6)
COCc1ncccc1-c1csc(NC(=O)c2ccc(N3CCN(C(C)=O)CC3)cn2)n1	collagen 1 (COL1)	+++ (+++: <−6)
Cc1cc(N2CCOCC2)ccc1C(=O)Nc1nc(-c2ccccc2Cl)cs1	collagen 1 (COL1)	+++ (+++: <−6)
O=C(Nc1nc(-c2ccc(Cl)cc2Cl)cs1)c1ccccc1	collagen 1 (COL1)	++ (++: −5 to −6)

Which COL1 Efficacy (LogEC50) value belongs to COc1ncccc1-c1csc(NC(=O)c2ccc(C)nc2)n1 ? ++ (++: −5 to −6)

* * *

System: collagen 1 (COL1)
Test: WI-38 collagen 1 inhibition assay
Assay type: cell-based, human
Settings: Cellular EC50, WI-38 cells; values are classes of LogEC50
Excerpt: All compounds were profiled for cellular potency in inhibition of collagen 1 (COL1) protein translation using a phenotypic screening platform. […] Cell images were taken with Operetta (Perkin Elmer, USA), a wide-field fluorescence microscope at 20× magnification. […] In Columbus, cells were identified by their nucleus, using the “Find Nuceli” module and cytoplasm was detected based on the secondary antibody channel. […]
Test Readout: COL1 Efficacy (LogEC50)

The following compounds have reported results that may help.
Query Smiles	Result
COCc1cc(N2CCOCC2)ccc1C(=O)Nc1nc(-c2ccccc2Cl)cs1	− (−: inactive)
CNCc1ccccc1-c1csc(NC(=O)c2ccc(N3CCN(S(C)(=O)=O)CC3)cn2)n1	− (−: inactive)
CS(=O)(=O)N1CCN(C(=O)[C@H]2C[C@@H](C(=O)Nc3nc(-c4ccccc4Cl)cs3)C2)CC1	+ (+: >−5)
COc1ncc(C(=O)Nc2nc(-c3cccnc3OC)cs2)cn1	− (−: inactive)
COc1ccc(C(=O)Nc2nc(-c3ccc(F)cc3Cl)cs2)cc1	+++ (+++: <−6)

Looking for the measured COL1 Efficacy (LogEC50) of O=C(Nc1nc(-c2ccc(Cl)cc2Cl)cs1)c1ccc(Cl)cc1 , can you help? + (+: >−5)

Entry under review: CC(=O)N1CCN(c2cnc(C(=O)Nc3nc(-c4ccccc4Cl)cs3)c(C)c2)CC1 . Reported COL1 Efficacy (LogEC50)? +++ (+++: <−6)

Reference source: patent US20230212131A1
